The origin of these recorded values is patent US20230118307A1.

Listed here are binders together with their documented In vitro Activity Compared to Native Peptide (%) vs. GLP-1.
Assay System: human GLP-1 receptor (human, UniProt P43220 24-463)
Protocol Description: cell-based or functional assay
Positions of bridges follow the written chain, without caps; N, C: chain ends. Non-standard residues stand in square brackets, D forms with d. No end group written: not given here. *: point of attachment. Acetyl(2-(4-imidazolyl)) = O=C(Cc1c[nH]cn1)*; Aib = CC(C)(N)C(=O)O
Parameter: In vitro Activity Compared to Native Peptide (%) vs. GLP-1

- Binder: "HGQGTFTSDCSKYMDGQAAQDFVAWLLAGGPSSGAPPPS [triple agonist of SEQ ID NO: 45]"
  Result: "6.6%"
- Binder: "H[Aib]QGTFTSDKSKYLDERACQDFVQWLLDGGPSSGAPPPS [triple agonist of SEQ ID NO: 40]"
  Result: "75.2%"
- Binder: "HGQGTFTSDCSKYLDGQRAQEFVAWLLAGGPSSGAPPPS [triple agonist of SEQ ID NO: 47]"
  Result: "2.4%"
- Binder: "H[Aib]QGTFTSDYSKYLDEKRQKEFVQWLLDTKC (bridge 16-20) [triple agonist of SEQ ID NO: 78]"
  Result: "51%"
- Binder: "[Acetyl(2-(4-imidazolyl))][Aib]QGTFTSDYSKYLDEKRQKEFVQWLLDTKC (bridge 16-20) [triple agonist of SEQ ID NO: 89]"
  Result: "7.1%"
- Binder: "H[Aib]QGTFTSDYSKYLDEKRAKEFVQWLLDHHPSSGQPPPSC (bridge 16-20) [triple agonist of SEQ ID NO: 50]"
  Result: "67.4%"
